Entries and their fold change of affinity
Target: T1, Human CD3eg linker (human)
T1 construct: single-chain construct; also called recombinant human CD3
T1 chain: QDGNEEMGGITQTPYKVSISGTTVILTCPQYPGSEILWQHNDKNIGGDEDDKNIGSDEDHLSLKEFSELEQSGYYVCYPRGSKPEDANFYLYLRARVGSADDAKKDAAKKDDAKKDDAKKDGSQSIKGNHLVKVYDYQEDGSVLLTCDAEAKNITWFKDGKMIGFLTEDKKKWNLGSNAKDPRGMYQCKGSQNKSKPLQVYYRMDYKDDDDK
Experiment: SPR, vs unmutated H183/L072
attributeMeasured: fold change of affinity (fold)

| binder | unitString | reportedMeasurement |
| --- | --- | --- |
| dBBDu183H P100eT/dBBDu072L (antibody, name in Kabat numbering, V domains shown) VH: QVQLVESGGGLVQPGRSLRLSCAASGFTFSNAWMHWVRQAPGKGLEWVAQIKDKGNAYAAYYAPSVKGRFTISRDDSKNSIYLQMNSLKTEDTAVYYCHYVHYASASTVLTAFGVDAWGQGTTVTVSS VL: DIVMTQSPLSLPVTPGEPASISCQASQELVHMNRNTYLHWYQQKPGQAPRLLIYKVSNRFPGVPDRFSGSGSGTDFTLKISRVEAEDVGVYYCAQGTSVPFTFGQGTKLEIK | fold | 1.4 |
| dBBDu183H D101W/dBBDu072L (antibody, name in Kabat numbering, V domains shown) VH: QVQLVESGGGLVQPGRSLRLSCAASGFTFSNAWMHWVRQAPGKGLEWVAQIKDKGNAYAAYYAPSVKGRFTISRDDSKNSIYLQMNSLKTEDTAVYYCHYVHYASASTVLPAFGVWAWGQGTTVTVSS VL: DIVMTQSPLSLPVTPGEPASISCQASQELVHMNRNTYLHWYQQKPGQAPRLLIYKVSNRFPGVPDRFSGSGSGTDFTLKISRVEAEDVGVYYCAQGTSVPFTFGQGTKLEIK | fold | 0 |
